B1: PBXIP1 (parent)
chain: LPVETLGPASRMDPESERALQAPH

variants of: B1; assay: protein stability index of a GFP-peptide fusion (GPS, HEK-293T) (PSI 1-6); higher = more stable; conditions: c terminus: a fixed tail appended;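 further: lentivirally expressed fusions sorted by FACS into six bins by GFP to DsRed ratio, PSI derived from sequencing read proportions per bin multiplied by bin number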
PARAMETER_MEASURED: protein stability index
One number for each entry.

Some entries whose results are on file:
{"MUTANT": "S10I", "OBS_VALUE": 3.95}
{"MUTANT": "Q21G", "OBS_VALUE": 3.97}

Quick batch: protein stability index for everything below.
1. P14A
2. V3C

Response:
[4.62, 4.61]

Quick batch: protein stability index for everything below.
1. P8A
2. E17G
3. M12N
4. S10D
5. L6Q
6. H24Q
7. D13W

Response:
1. 5.03
2. 4.13
3. 4.41
4. 4.92
5. 5.78
6. 4.31
7. 3.71

Quick batch: protein stability index for everything below.
1. P8Y
2. L1I
3. E17W

Response:
1. 4.67
2. 4.42
3. 3.4

Quick batch: protein stability index for everything below.
1. P2W
2. A22W

Response:
1: 1.53; 2: 3.25

Origin of measurements: the supplement of paper PMC10567573
